Molecular target: 5-hydroxytryptamine receptor 1A (Homo sapiens, UniProt P08908)
Sequence (P08908 whole entry): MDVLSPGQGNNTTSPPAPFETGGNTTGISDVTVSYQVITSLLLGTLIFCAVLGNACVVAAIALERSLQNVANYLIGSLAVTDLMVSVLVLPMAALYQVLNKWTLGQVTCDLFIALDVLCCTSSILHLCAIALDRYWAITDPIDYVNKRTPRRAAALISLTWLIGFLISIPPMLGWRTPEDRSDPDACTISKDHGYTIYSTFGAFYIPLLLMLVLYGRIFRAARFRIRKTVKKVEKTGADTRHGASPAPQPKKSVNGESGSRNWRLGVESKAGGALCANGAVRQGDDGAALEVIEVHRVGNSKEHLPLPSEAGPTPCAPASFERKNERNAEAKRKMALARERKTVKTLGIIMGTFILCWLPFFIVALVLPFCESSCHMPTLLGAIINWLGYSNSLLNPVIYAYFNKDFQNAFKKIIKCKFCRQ
Experiment: Agonist activity at 5HT1A receptor by GTPgammaS assay
pEC50: −log10 of the molar value.
Measurement Kind: pEC50

[a] Fc1ccccc1Oc1cccc(F)c1C1CCNCC1
[b] Fc1cccc(Cl)c1Oc1ncccc1C1CCNCC1
Asked: # min-compare on pEC50 between a and b Give the label of your selection.
Given back: a

* * *

molecular target: Sodium-dependent noradrenaline transporter (Homo sapiens); test: Displacement of [3H]nisoxetine from human NET expressed in HEK293 cells by scintillation proximity assay; format: cell-based
Sequence (P23975 whole entry): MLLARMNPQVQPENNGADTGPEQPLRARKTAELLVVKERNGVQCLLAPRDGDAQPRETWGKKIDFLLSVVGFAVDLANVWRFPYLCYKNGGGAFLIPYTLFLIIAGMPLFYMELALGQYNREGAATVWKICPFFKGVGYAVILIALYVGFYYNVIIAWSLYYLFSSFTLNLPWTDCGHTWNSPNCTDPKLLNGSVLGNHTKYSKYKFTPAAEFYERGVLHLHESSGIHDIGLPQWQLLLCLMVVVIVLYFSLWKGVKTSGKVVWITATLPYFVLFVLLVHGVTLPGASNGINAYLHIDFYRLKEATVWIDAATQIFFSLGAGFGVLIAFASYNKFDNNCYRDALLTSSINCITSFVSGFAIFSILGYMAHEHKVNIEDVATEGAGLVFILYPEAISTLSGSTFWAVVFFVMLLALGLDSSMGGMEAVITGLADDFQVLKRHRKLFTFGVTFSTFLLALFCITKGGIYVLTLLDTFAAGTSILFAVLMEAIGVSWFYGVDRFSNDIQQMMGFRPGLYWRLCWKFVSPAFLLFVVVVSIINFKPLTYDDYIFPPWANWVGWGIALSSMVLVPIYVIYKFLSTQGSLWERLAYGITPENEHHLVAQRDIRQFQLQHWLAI
Measurement Kind: Ki (nM)

Fc1cccc(Cl)c1Oc1ncccc1N1CCNCC1; 663

[A] Fc1ccc(Cl)c(Oc2ncccc2C2CCNCC2)c1
[B] Cc1ccc(Oc2ncccc2C2CCNCC2)c(F)c1
Asked: Pick one: A or B . Which has the bigger Ki number? Give the label of your selection.
Given back: B
(B: 921 nM, A: 247 nM)

* * *

Target: 5-hydroxytryptamine receptor 1A (Homo sapiens)
Sequence (P08908 whole entry): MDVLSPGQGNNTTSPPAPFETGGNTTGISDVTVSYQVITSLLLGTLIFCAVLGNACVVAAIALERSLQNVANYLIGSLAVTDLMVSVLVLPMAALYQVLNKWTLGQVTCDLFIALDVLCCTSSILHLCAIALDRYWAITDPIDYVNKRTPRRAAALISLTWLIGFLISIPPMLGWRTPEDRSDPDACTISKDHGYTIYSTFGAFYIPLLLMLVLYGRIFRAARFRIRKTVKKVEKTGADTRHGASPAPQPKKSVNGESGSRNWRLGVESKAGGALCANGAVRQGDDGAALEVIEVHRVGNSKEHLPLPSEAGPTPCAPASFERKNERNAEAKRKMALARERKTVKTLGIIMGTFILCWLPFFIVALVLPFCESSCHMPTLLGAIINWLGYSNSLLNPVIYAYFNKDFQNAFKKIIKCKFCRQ
Measurement Kind: Ki (nM)

Clc1ccccc1Oc1ncccc1N1CCNCC1; 4.5

[P] COc1ccccc1Oc1ncccc1C1CCNCC1
[Q] Fc1ccc(Cl)c(Oc2ncccc2C2CCNCC2)c1
[R] Clc1ccc(Oc2ncccc2C2CCNCC2)c(Cl)c1
[S] Fc1cccc(F)c1Oc1ncccc1C1CCNCC1
Asked: Ordering: ascending Ki. Labels, ranked as asked.
Given back: S, Q, R, P

[A] COc1cccc(F)c1Oc1ncccc1C1CCNCC1
[B] Clc1ccccc1Oc1ncccc1C1CCNCC1
Asked: Pick one: A or B . Which has the bigger Ki number? Give the label of your selection.
Given back: A

* * *

Biological target: 5-hydroxytryptamine receptor 1A (Homo sapiens, UniProt P08908)
Sequence (P08908 whole entry): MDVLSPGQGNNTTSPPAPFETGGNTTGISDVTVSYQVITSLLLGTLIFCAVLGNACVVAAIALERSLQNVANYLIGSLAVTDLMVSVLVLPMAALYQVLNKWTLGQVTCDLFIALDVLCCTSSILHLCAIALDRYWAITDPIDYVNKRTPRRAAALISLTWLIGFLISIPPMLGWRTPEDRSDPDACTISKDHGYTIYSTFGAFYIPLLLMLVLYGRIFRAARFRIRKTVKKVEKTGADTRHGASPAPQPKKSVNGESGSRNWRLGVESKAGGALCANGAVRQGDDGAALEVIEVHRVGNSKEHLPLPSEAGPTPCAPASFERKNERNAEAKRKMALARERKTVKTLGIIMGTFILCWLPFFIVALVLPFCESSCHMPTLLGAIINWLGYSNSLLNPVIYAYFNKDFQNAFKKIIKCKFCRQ
pKi: −log10 of the molar value.
Measurement Kind: pKi

Clc1cccc(Oc2ncccc2C2CCNCC2)c1Cl; 7.43
Fc1cccc(Cl)c1Oc1ncccc1N1CCNCC1; 8.43
FC(F)(F)c1ccccc1Oc1ncccc1C1CCNCC1; 7.15

[1] c1ccc(Oc2ncccc2C2CCNCC2)cc1
[2] Fc1cccc(Cl)c1Oc1ncccc1C1CCNCC1
Asked: # min-compare on pKi between 1 and 2 Give the label of your selection.
Given back: 1
(1: 7.00, 2: 7.96)

* * *

pKi: −log10 of the molar value.
// pKi collected for UniProt:P23975
Measurement Kind: pKi

Past entries and their recorded results:
COc1ccccc1Oc1ncccc1C1CCNCC1; 6.53
Fc1cccc(Cl)c1Oc1ncccc1C1CCNCC1; 7.48

[A] c1ccc(Oc2ncccc2C2CCNCC2)cc1
[B] Fc1ccccc1Oc1cccc(F)c1C1CCNCC1
Asked: # min-compare on pKi between A and B Give the label of your selection.
Given back: A

[P] COc1cccc(F)c1Oc1ncccc1C1CCNCC1
[Q] Cc1cccc(F)c1Oc1ncccc1C1CCNCC1
Asked: # min-compare on pKi between P and Q Give the label of your selection.
Given back: P

* * *

target: Sodium-dependent dopamine transporter (Homo sapiens); test: Displacement of [3H]WIN-35428 from human DAT expressed in HEK293 cells by scintillation proximity assay; assay type: cell-based
pKi: −log10 of the molar value.
Form field: pKi (one value per entry).

Past entries and their recorded results:
Fc1cccc(F)c1Oc1ncccc1C1CCNCC1; < 5.18
Fc1cccc(Cl)c1Oc1ncccc1N1CCNCC1; < 5.20
COc1cccc(F)c1Oc1ncccc1C1CCNCC1; 5.19
FC(F)(F)c1ccccc1Oc1ncccc1C1CCNCC1; < 5.18
Cc1ccccc1Oc1ncccc1C1CCNCC1; < 5.21
Clc1ccccc1Oc1ncccc1N1CCNCC1; < 5.20
Fc1ccc(Oc2ncccc2C2CCNCC2)c(F)c1; 5.59
Fc1ccccc1Oc1cccc(F)c1C1CCNCC1; 6.56

Asked: Consider the compound shown here: Clc1ccc(Oc2ncccc2C2CCNCC2)c(Cl)c1 What is its recorded pKi?
Given back: < 5.26

Asked: Follow-up item: Clc1cccc(Oc2ncccc2C2CCNCC2)c1Cl
Given back: 6.51

Asked: Follow-up item: Cc1ccc(Oc2ncccc2C2CCNCC2)c(F)c1
Given back: < 5.21

* * *

biological target: Sodium-dependent serotonin transporter (Homo sapiens, UniProt P31645); assay: Agonist activity at SERT; format: functional
Sequence (P31645 whole entry): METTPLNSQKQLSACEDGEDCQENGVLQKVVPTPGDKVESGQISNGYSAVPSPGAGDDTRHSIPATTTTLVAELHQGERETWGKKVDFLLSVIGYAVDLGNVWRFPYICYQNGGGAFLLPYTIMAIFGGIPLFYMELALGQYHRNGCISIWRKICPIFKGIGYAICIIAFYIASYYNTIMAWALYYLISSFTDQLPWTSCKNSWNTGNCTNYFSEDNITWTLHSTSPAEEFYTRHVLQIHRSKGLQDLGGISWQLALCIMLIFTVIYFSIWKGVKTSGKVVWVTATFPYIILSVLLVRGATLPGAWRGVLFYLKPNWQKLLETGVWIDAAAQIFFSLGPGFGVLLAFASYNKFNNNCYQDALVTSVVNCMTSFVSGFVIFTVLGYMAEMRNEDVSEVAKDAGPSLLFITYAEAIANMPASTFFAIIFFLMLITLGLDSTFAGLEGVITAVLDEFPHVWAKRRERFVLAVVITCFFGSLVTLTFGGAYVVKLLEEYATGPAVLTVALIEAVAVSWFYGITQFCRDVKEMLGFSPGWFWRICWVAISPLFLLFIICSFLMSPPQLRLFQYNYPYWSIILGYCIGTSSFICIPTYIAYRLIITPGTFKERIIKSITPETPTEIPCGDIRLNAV
Measurement Kind: EC50 (µM)

[a] Fc1ccccc1Oc1cccc(F)c1C1CCNCC1
[b] Fc1cccc(Cl)c1Oc1ncccc1C1CCNCC1
Asked: Pick one: a or b . Which has the bigger EC50 number? Give the label of your selection.
Given back: a

* * *

target: Sodium-dependent dopamine transporter (Homo sapiens, UniProt Q01959); experiment: Agonist activity at DAT
Sequence (Q01959 whole entry): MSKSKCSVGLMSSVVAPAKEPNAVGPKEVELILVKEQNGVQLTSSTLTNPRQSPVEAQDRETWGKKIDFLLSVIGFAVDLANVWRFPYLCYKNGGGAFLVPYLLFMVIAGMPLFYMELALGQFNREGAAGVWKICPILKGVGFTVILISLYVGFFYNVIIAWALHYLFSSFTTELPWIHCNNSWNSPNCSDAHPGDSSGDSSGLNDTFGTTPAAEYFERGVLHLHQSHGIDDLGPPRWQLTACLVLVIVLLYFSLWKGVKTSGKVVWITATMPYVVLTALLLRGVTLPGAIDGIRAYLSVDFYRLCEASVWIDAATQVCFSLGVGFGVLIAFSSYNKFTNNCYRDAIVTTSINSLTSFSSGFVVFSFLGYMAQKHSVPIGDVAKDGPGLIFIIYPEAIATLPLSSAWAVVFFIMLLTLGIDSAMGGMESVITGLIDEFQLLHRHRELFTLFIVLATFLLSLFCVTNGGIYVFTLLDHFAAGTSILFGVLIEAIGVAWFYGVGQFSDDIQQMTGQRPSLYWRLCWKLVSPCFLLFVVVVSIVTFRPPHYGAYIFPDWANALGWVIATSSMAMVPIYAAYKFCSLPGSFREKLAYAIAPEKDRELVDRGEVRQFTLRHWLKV
Measurement Kind: EC50 (µM)

[1] Fc1ccccc1Oc1cccc(F)c1C1CCNCC1
[2] Fc1cccc(Cl)c1Oc1ncccc1C1CCNCC1
Asked: # min-compare on EC50 between 1 and 2 Give the label of your selection.
Given back: 1
(1: 0.498 µM, 2: 6.88 µM)

* * *

// Ki collected for Sodium-dependent serotonin transporter (Homo sapiens, UniProt P31645)

Clc1ccccc1Oc1ncccc1N1CCNCC1; > 4.71 µM
Cc1ccccc1Oc1ncccc1C1CCNCC1; 0.292 µM

Then there is this molecule:
Asked: Consider the molecule shown here: Fc1cccc(Cl)c1Oc1ncccc1N1CCNCC1 What is its recorded Ki?
Given back: > 4.71 µM
